# Tested on: A. viscosus biofilm
# Protocol: Bioenhancement assay: BEC50 of antimicrobial agents with or without bisabolol, crystal violet, 24 h (Examples 4 and 5)
# Assay type: cell-based
# Recorded Conditions: first Table 3, said to be raw data of FIG. 4b, absence of bisabolol
Reported Property: BEC(50) alone

Record excerpt, results attached:
{"Compound": "CCCCCCCCCCCCCCCC[n+]1ccccc1 [CPC, cetyl pyridinium chloride]", "Target Or Test System": "A. viscosus biofilm", "Reported Property": "BEC(50) alone", "Recorded Value": 0.1196}
{"Compound": "Oc1cc(Cl)ccc1Oc1ccc(Cl)cc1Cl", "Target Or Test System": "A. viscosus biofilm", "Reported Property": "BEC(50) alone", "Recorded Value": 0.2819}
{"Compound": "CCCc1ccc(O)c(-c2ccc(O)c(CCC)c2)c1", "Target Or Test System": "A. viscosus biofilm", "Reported Property": "BEC(50) alone", "Recorded Value": 0.3906}

Fill in the blank: the reported BEC(50) alone of "CCCCc1ccc(O)c(-c2cc(CCCC)ccc2O)c1" is ____. 0.09766
